tested-target: bovine serum albumin (bovine) (UniProt P02769)
Sequence (P02769 25-607 limits assumed): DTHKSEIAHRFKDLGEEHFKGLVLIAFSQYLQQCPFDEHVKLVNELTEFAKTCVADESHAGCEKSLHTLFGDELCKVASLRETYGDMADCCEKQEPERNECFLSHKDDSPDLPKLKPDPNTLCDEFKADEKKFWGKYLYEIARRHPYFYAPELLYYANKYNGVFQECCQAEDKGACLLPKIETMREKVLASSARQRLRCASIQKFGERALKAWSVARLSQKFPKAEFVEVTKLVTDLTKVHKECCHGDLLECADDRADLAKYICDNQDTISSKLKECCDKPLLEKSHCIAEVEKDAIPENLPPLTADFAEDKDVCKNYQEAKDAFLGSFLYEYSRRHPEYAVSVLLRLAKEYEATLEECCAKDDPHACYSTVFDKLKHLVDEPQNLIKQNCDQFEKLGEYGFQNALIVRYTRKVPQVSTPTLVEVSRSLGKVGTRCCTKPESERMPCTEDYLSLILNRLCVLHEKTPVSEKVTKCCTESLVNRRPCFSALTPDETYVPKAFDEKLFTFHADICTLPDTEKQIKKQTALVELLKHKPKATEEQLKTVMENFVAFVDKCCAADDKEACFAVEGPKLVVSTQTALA
procedure-summary: phage ELISA on coated BSA
Ends that are not written are not given here.
Quick list: OD per entry.
assay-endpoint: OD (OD 650 nm)

1. SESGRCRSVSRWMTTWQTQKGGCGSNVSRGSPLDPSHQTGHATT [phage DAX15]    0.101
2. SWTRWGKHTHGGFVNKSPPGKNATSPYTDAQLPSDQGPP (peptide, not shown: large carriers) [phage PAX16]    0.171
3. SPKLSSVGVMTKVTELPTEGPNAISIPISATLGPRNPLR (also: displayed as N-terminal pIII fusion on M13 phage) [phage SNiAX8]    0.068
4. SSKVSSPRDPTVPRKGGNVDYGCGHRSSARMPTSALSSITKCYT (peptide, not shown: large carriers, cysteine pairing not given here; also: displayed as N-terminal pIII fusion on M13 phage) [phage PAX38]    0.064
5. RSITDGGINEVDLSSVSNVLENANSHRAYRKHRPTLKRP (also: displayed as N-terminal pIII fusion on M13 phage, M13 phage displaying this insert as N-terminal pIII fusion; whole phage in the ELISA; not shown: M13 phage particle / pIII display carrier (and vector flanks)) [phage PAX35]    0.065
6. SDSDGDHYGLRGGVRCSLRDRGCGLALSTVHAGPPSFYPKLSSP (cysteine pairing not given here; also: displayed as N-terminal pIII fusion on M13 phage) [phage SNiAX2]    0.065
7. RYSGLSPRDNGPACSQEATLEGCGAQRLMSTRRKGRNSRPGWTL [phage DCX42]    0.065
8. RWNWTVLPATGGHYWTRSTDYHAINNHRPSIPHQHPTPI [phage DCX33]    0.103
9. RGSTGTAGGERSGVLNLHTRDNASGSGFKPWYPSNRGHK (peptide, not shown: large carriers, also: displayed as N-terminal pIII fusion on M13 phage) [phage 5PAX5]    0.036
10. SKWSWSSRWGSPQDKVEKTRAGCGGSPSSTNCHPYTFAPPPQAG [phage DAB24]    0.441
